system: TO-N3-2 (biotin conjugate); experiment: pull-down binding Z-score (relative to library population); higher = stronger binding; conditions: RNA library: Library-2
Mark met for reported pull-down binding Z-score of -0.1 or greater; mark not met for anything smaller.

Some solved cases for reference:
Request: Does pull-down binding Z-score meet or surpass -0.1 for "UAGCGUGCCUUUGUAAGCACAAGCUG" ?
Response: met

Request: Proceed to "CUUGAACAAUGGAACCUAGUAAUAGGUUUCCUAUUCCUUACAUGGAUUUGUCUUCUACAAUUUGCCUAUGCCAACAGG"
Response: not met

Next:
Request: Does pull-down binding Z-score meet or surpass -0.1 for "ACACUCUACGUGU" ?
Response: not met

Request: Proceed to CCUGUCCUAUGACAAACAUGGCAGG [hsa-mir-3927]
Response: not met

Request: Proceed to GGGCGCCGGCGGCCGGGAGAUCCGCGCUUCCUGAAUCCCGGCCGGCCCGCCCGGCGCCC [hsa-mir-4497]
Response: met

Request: Proceed to GGCAUCAUAUGGGUUGCAACUGAGGGAGCCUUGAAUACACCAAAAGAUCACAUUGGCACCCGCAAUCCUGCUAACAAUGCU [DMSMaPseq_invitro_SARS-CoV-2_Motif_513]
Response: met

Request: Proceed to AGCGCGAAAGU [hsa-mir-1539]
Response: met

Request: Proceed to GUGGGUCAAGUUUAGAGAUGCACCAAC [hsa-mir-490]
Response: met

Request: Proceed to "GUGUUUAUGAUUACUUAGUUUCUACACAGGAGUUUAGAUAUAUGAAUUCACAGGGACUACUCCCACCCAAGAAUAGCAUAGAUGC"
Response: met

Request: Proceed to "UCCUAAAGAGGA"
Response: not met

Request: Proceed to "CCACGCCAGGUAGUGG"
Response: not met

Request: Proceed to CGGAGCAGUCACGUUGACGGAAUCCUCCG [hsa-mir-3183]
Response: met

Request: Proceed to "GGUCCAGAACAAACCCAAGGAAAUUUUGGGGACC"
Response: met

Request: Proceed to CCACCCACCAGGGAGCUUUCCAUGGGCUGUGGG [hsa-mir-4725]
Response: met

----------
system: TO-N3 (biotin conjugate); assay: pull-down binding Z-score (relative to library population); higher = stronger binding; conditions: RNA library: Library-2
Would you mind telling me the reported pull-down binding Z-score of each entry?
Give bare numbers.

Answered cases to consult:
Request: // pull-down binding Z-score lookup, key: GCUUCUGCUGCAUGAUCUCCGAGUCCCUGGGGGUAGAGAUGAUGGGGCACUGGGAGGU [hsa-mir-1282]
Response: 0.59

Request: Proceed to CUGUGGUGGCUGCUUAUGCACCACGG [hsa-mir-105-2]
Response: 0.363

Go through the items and report each one's pull-down binding Z-score.
1. UUUUUCCAUUGUAAGUAAUGGGAAAA [hsa-mir-548f-5]
2. GGUUUAACUUCUAUUAAAUGGGCAGAUAACAACUGUUAUCUUGCCACUGCAUUGUUAACACUCCAACAAAUAGAGUUGAAGUUUAAUCC
3. CUUCACUGGUGCAGUAAGAAG [hsa-mir-7853]
4. GGCGCUGUCUUGAGACAUUCGCGCAGUGCA [hsa-mir-3177]
5. GUGUUCACACAUAAUGUGUACACCAUGUGUGUACAC [hsa-mir-5692b]
6. ACCUGUGUGUGCCCAAGUGUUUCUAGCAAACACAGGG [hsa-mir-3649]

Response:
[-0.991, -0.793, -0.253, 0.646, 0.022, 0.757]

Go through the items and report each one's pull-down binding Z-score.
1. UAUUCUGAUGUCCAAGUGGAAA [hsa-mir-372]
2. AGGUUUGUGUCCAAUACAGUCCACACCU [hsa-mir-3200]
3. GUAAGAGAGACUCUCGCUUCCUGC [hsa-mir-874]

Response:
1: -0.772; 2: -0.879; 3: 0.169

Go through the items and report each one's pull-down binding Z-score.
1. UCUUCCCAAAGUUGAGAAAA [hsa-mir-320d-1]
2. CGGGACCAACGAGGAAAUGUACUACUGUCUCCCG [IAV_invivo_PB2_1_Motif_23+IAV_invivo_PB2_1_Motif_23]
3. GUUGUUGUCUUACUGCGCUCAACAAC [hsa-mir-7-2]
4. AGGCAUGGGUGGCU [hsa-mir-8085]
5. CCAGUGGUUUUCCUUGACUGUG [hsa-mir-298]
6. UACAAACUUGUG [DMSMaPseq_invitro_SARS-CoV-2_Motif_398]
7. AAAGGACUGGUAUGAUUUUGUAGAAAACCCAGAUAUAUUACGCGUAUACGCCAACUUAGGUGAACGUGUACGCCAAGCUUU

Response:
-0.746
-0.196
-0.0893
0.428
-0.416
-1.02
-0.193

----------
tested on: G-clamp-N3 (biotin conjugate); test: pull-down binding Z-score (relative to library population); higher = stronger binding; details: RNA library: Library-1 (pre-miRNA loops + repeats)
Measure: pull-down binding Z-score
Answers are plain numbers.

Answered cases to consult:
Request: // pull-down binding Z-score lookup, key: GAUGGAGGAAUCACAUGAAUUCAUC [hsa-mir-2115]
Response: 0.704

Request: Proceed to CUCUUGAUAGCAGACAU [hsa-mir-4775]
Response: -0.839

Go through the items and report each one's pull-down binding Z-score.
1. CUUUUUGCUGAUGGAGGGUCUUGCCUCCAUGGGGAUGGCUG [hsa-mir-4502]
2. AUUCUGGCUAGGUGAUCAUCAGAAU [hsa-mir-5583-1]
3. AGGGGACACGGGCAAAGACUUGGGGGUUCCUGGGACCCUCAGACGUGUGUCCUCU [hsa-mir-877]
4. CGAGCCGCUUCCUCACGGCUCG [hsa-mir-4665]
5. CGUUUAGUAGAUGAUUGUGCAUUGUUUCAAAAUG [hsa-mir-224]
6. ACUGAACCAGCUUCAAACAAGUUCACU [hsa-mir-653]
7. AGUAUUUUAAUCAUAGAUUGUAUUUAGUUAGUUUUUAAUACU [hsa-mir-4637]
8. GGAAGACACAUGAGCAGUGCCUCCACUUCACGCCUCUCCC [hsa-mir-6780b]

Response:
1
0.902
0.447
0.651
-0.24
-0.145
-0.0232
-1.13

Go through the items and report each one's pull-down binding Z-score.
1. CUGACCCGUUGUCAGACCUGGAAAAAGGGCCGGCUGUGGGCAGGGAGG [hsa-mir-4761]
2. CUGUGGUCUAACCUUUCCCAUCU [hsa-mir-6828]
3. GAGUUUGGAAUUAAAAUCAAAACC [hsa-mir-181a-1]
4. UUGGGGAGGAGCUAAGAAGCCCCUACAGGGCCCAG [hsa-mir-4257]
5. CUAUUCAGAAAUGUGGCCUGUGAUUAG [hsa-mir-1295a]
6. AGGUGGAAAGGGAGCAGGAGCAUCGUCUUUAAGAGGGUCAGGUACCUUUGCUCUUA [hsa-mir-6083]
7. AGGCAACAUGGCCGAGAGGCCGGGGCCU [hsa-mir-564]
8. GUGAGUGUCUCUUGUCGC [hsa-mir-1281]

Response:
1. 1.11
2. -1.45
3. -0.118
4. 1.25
5. 0.22
6. 0.244
7. 2.93
8. 1.22

Go through the items and report each one's pull-down binding Z-score.
1. CAAGCACACAGGGCCUGGGACUAGCAUG [hsa-mir-4728]
2. GGACCCUCUCUCUACCUCU [hsa-mir-4315-1_4315-2]
3. ACAGCCAGUGCUCUCGUCUCCCCUCUGGCUGC [hsa-mir-192]
4. CCCAGCUUUGUGACUGUAAGUGUUGGA [hsa-mir-184]
5. GAGCUGGGUGGGGUGCCAAGCCU [hsa-mir-6819]
6. UUCCGGUGAUUAUCACAGCCAUGCCUUUACCUCCAGAA [hsa-mir-4493]

Response:
[-0.152, -0.489, 0.589, 0.351, 1.38, -0.101]

Go through the items and report each one's pull-down binding Z-score.
1. UGGUGGGGGCCGGGGCAGGCCCAGCGAAA [hsa-mir-648]
2. UAUGACCAGGCCAUAGUAAACAUCAUA [hsa-mir-4744]
3. GAAUUCGCUUUAUUUAUGUUGAAUC [hsa-mir-377]
4. AGUCCAAAGGAAAGGGCU [hsa-mir-8077]

Response:
1: 1.1; 2: 1.78; 3: -0.856; 4: -0.578

----------
tested on: G-clamp-N3 (biotin conjugate); assay: pull-down binding Z-score (relative to library population); higher = stronger binding; settings: RNA library: Library-1 (pre-miRNA loops + repeats)
Mark t for reported pull-down binding Z-score of -0.9 or greater; mark f for anything smaller.

Request: Does pull-down binding Z-score meet or surpass -0.9 for UCCUGAUGGUCCCCUCCCCAGGG [hsa-mir-185] ?
Response: f

Request: Proceed to GGGUGAUACACAAGCCUGACCCUCCC [hsa-mir-6793]
Response: f

Request: Proceed to CCCAGAGAAAGCCUGAACGUUGGG [hsa-mir-585]
Response: t

Request: Proceed to CCGAGUGAUCUCGGU [hsa-mir-8071-1_8071-2]
Response: f

Next:
Request: Does pull-down binding Z-score meet or surpass -0.9 for GAGUCAGAAAAACUAC [hsa-mir-601] ?
Response: f

Request: Proceed to AGUCACUUAGAUUACAUGUCACU [hsa-mir-892c]
Response: f

Request: Proceed to UGUGCCUGCCUUCGAAGUGCACGGCAGG [hsa-mir-4297]
Response: t

Request: Proceed to CAAACCGGACCUGAGCGUUUUG [hsa-mir-375]
Response: t

Request: Proceed to GGGGCUGGUUGUCUA [hsa-mir-6080]
Response: t

Request: Proceed to CAGUGGCAGAUUUUCCCAUAG [hsa-mir-4727]
Response: f

Request: Proceed to GAAUUCGAUUCAUCAAAGCGAGUC [hsa-mir-485]
Response: t

Request: Proceed to GUUGAAAAAUAUCUAUGUAUUAGUAAAC [hsa-mir-649]
Response: t

Data provenance: the supplement of paper PMC11865577
